These measurements were taken from the supplement of paper PMC6522484.

cell viability listing for selected molecules.
system: HCT116; test: cell viability (CellTiter-Glo) relative to plate median (fraction of plate median); higher = more viable cells; settings: 5 µM; treatment time 24 h; reporter: TCF4/Wnt

Recorded results for 3 molecules are shown here.
molecule: O=C([O-])Cc1ccccc1.[Na+]
cell viability: 0.906

molecule: CC[C@@]1(O)C[C@H](O[C@H]2C[C@H](N(C)C)[C@H](O[C@H]3C[C@@H]4O[C@H]5CC(=O)[C@H](C)O[C@H]5O[C@@H]4[C@H](C)O3)[C@H](C)O2)c2c(cc3c(c2O)C(=O)c2c(O)ccc(O)c2C3=O)[C@H]1C(=O)OC [Cinerubin-B]
cell viability: 0.993

molecule: C/C=C/c1ccc2c(c1)OCO2
cell viability: 0.998

Challenge: Looking for the measured cell viability of CC1=NCCc2c1[nH]c1cc(O)ccc21 , can you help?
Response given: 1.01

Challenge: Subsequent entry: CCNc1nc(Cl)nc(NC(C)C)n1
Response given: 1.07

Challenge: Next entry: NCC(O)c1ccc(O)cc1 (stereo not drawn)
Response given: 0.923

###

system: DLD1; assay: cell viability (CellTiter-Glo) relative to plate median (fraction of plate median); higher = more viable cells; details: 5 µM; treatment time 24 h; reporter: 7TFP
attribute_measured: cell viability
Give the figure by itself; no unit, no explanation.

molecule: O=C1c2ccccc2-c2cccc3cccc1c23
tested_system: DLD1
result: 1
//
molecule: CNC(=O)Oc1ccccc1OC(C)C
tested_system: DLD1
result: 0.98
//
molecule: C=C(C)[C@H]1Cc2c(ccc3c(=O)c4c(oc23)COc2cc(OC)c(OC)cc2-4)O1
tested_system: DLD1
result: 1.07

Next molecule, cell viability to be filled in.
Challenge: Query (molecule): CCC(C)C(=O)O[C@@H]1C[C@@]2(C)[C@H](c3ccoc3)OC(=O)CC23OC2(C)O[C@]14[C@]1(C)[C@@H](CC(=O)OC)C5(C)CC1(O)[C@](O)(C5OC(=O)C1(C)OC1C)[C@@H](OC(C)=O)[C@]34O2 (some centres undefined) ; field requested: cell viability
Response given: 0.972

###

tested on: DLD1; test: TCF/Wnt firefly luciferase reporter signal relative to plate median (fraction of plate median); higher = higher Wnt reporter signal; conditions: 5 µM; treatment time 24 h; reporter: 7TFP
As shown below, each of these compounds has a reported TCF/Wnt firefly luciferase reporter signal value.
Output spec: single numeric token, no unit.

compound: CCOC(=O)c1cncn1[C@H](C)c1ccccc1
result: 0.965
//
compound: CC(CCc1ccccc1)NC(C)C(O)c1ccc(O)cc1 (stereo not given)
result: 1.2
//
compound: C[C@@H]1CC[C@]2(NC1)O[C@H]1C[C@H]3[C@@H]4CC=C5C[C@@H](O)CC[C@]5(C)[C@H]4CC[C@]3(C)[C@H]1[C@@H]2C
result: 0.963
//
compound: CCCC(=O)O[C@@H]1[C@@H](C)[C@@]2(O)[C@@H](C=C(CO)C[C@]3(O)C(=O)C(C)=C[C@@H]23)[C@@H]2C(C)(C)[C@]12OC(=O)CCC
result: 1.03

Challenge: Which TCF/Wnt firefly luciferase reporter signal is reported with DLD1 for this entry: C[C@]12CCC(=O)C=C1CCc1ccc(O)cc12 ?
Response given: 1.07

###

tested on: SW480; test: TCF/Wnt firefly luciferase reporter signal relative to plate median (fraction of plate median); higher = higher Wnt reporter signal; settings: 5 µM; treatment time 24 h; reporter: 7TFP
# label = 1 if TCF/Wnt firefly luciferase reporter signal >= 1 else -1

compound: Oc1ccc(Cl)cc1Cc1cc(Cl)ccc1O
assigned_class: -1
//
compound: CC(=O)O[C@H]1C(=O)[C@@]2(C)[C@H]([C@H](OC(=O)c3ccccc3)[C@]3(O)C[C@H](O)C(C)=C1C3(C)C)[C@]1(OC(C)=O)CO[C@@H]1C[C@@H]2O
assigned_class: -1
//
compound: COS(C)(=O)=O
assigned_class: -1
//
compound: C[C@@H]1O[C@@H](O[C@H]2C[C@@H](O)[C@]3(CO)[C@H]4[C@H](O)C[C@]5(C)[C@@H](C6=CC(=O)OC6)CC[C@]5(O)[C@@H]4CC[C@]3(O)C2)[C@H](O)[C@H](O)[C@H]1O
assigned_class: -1

Challenge: State whether the measured TCF/Wnt firefly luciferase reporter signal reaches 1, counting equality as reaching it, for C=C(C)[C@H]1Cc2c(ccc3c2O[C@@H]2COc4cc(OC)c(OC)cc4[C@@H]2C3=O)O1
Response given: -1

Challenge: Do the same for COC(=O)[C@H]1O[C@@H]2C[C@H]3O[C@@H](n4cnc5c(N)ncnc54)[C@H](OC)[C@H]3O[C@@]2(O)[C@@H](O)[C@@H]1O please
Response given: -1

Challenge: // same read-out, input: O=c1c(O)c(-c2ccc(O)c(O)c2)oc2c(O)c(O)cc(O)c12
Response given: -1

Challenge: Then what about the compound C=C(C)[C@H]1CN[C@H](C(=O)O)[C@H]1CC(=O)O ?
Response given: -1

Challenge: Field entry: COC(=O)[C@]1(C)CC[C@]2(C)CC[C@]3(C)C4=CCc5c(cc(O)c(O)c5C)[C@]4(C)CC[C@@]3(C)[C@@H]2C1
Response given: 1

Challenge: Also COc1cc([C@@H]2c3cc4c(cc3[C@H](O)[C@H]3COC(=O)[C@H]23)OCO4)cc(OC)c1OC , if possible.
Response given: -1

Challenge: Also CCCCOC(=O)c1ccccc1C(=O)OCCCC ?
Response given: -1

Challenge: Note, next up: O=[N+]([O-])O[C@@H]1CO[C@H]2[C@@H]1OC[C@@H]2O
Response given: -1

Challenge: Moving on to CC(C)(C)NCC(O)c1cc(Cl)c(N)c(Cl)c1 (stereo not given)
Response given: -1

Challenge: Repeat with c1cc2c(cc1[C@H]1OC[C@H]3[C@@H]1CO[C@H]3c1ccc3c(c1)OCO3)OCO2
Response given: -1

Challenge: Item: Oc1cccc2cccnc12
Response given: -1

Challenge: What would you report for CC[C@@H](CO)NC(=O)[C@@H]1C=C2c3cccc4[nH]cc(c34)C[C@H]2N(C)C1 ?
Response given: 1

Challenge: Would you mind doing C[N+]1(C)CCCC(OC(=O)C(O)(c2ccccc2)c2ccccc2)C1 (stereo not given) as well?
Response given: -1

Challenge: Then S=C=NCc1ccccc1 ?
Response given: -1

Challenge: Follow-up item: C[C@@H]1C[C@@H]([C@H](O)CC2CC(=O)NC(=O)C2)C(=O)[C@@H](C)C1
Response given: -1

Challenge: Query CCCCC[C@H](O)c1c(O)cc2c(c1O)C(=O)c1c(O)cc(O)cc1C2=O [Averantin] next
Response given: -1

Challenge: Could you do the same for Nc1ccc([As](=O)(O)O)cc1 , please?
Response given: -1

Challenge: Would you mind doing Oc1ccc(Cl)cc1 as well?
Response given: 1

Challenge: Would you kindly repeat that for CC(C)CC(N(C)C)C1(c2ccc(Cl)cc2)CCC1 (stereo not given) ?
Response given: -1

Challenge: Next record, please: O=C(O)CCC1NCC2CC1CN1CCCCC21 (stereo not given)
Response given: 1

Challenge: Next entry: C[N+]1(C)[C@@H]2C[C@@H](OC(=O)[C@H](CO)c3ccccc3)C[C@H]1[C@@H]1O[C@@H]12
Response given: 1

Challenge: Request: O=C([O-])c1ccccc1-c1c2cc(Br)c(=O)cc-2oc2[c]([Hg+])c([O-])c(Br)cc12.[Na+].[Na+].[OH-]
Response given: -1

Challenge: Next compound up: CC(C)=CCC[C@@H](C(=O)O)[C@H]1CC[C@@]2(C)C3=C(CC[C@]12C)[C@@]1(C)CC[C@H](O)C(C)(C)[C@@H]1CC3
Response given: 1
